Target sequence: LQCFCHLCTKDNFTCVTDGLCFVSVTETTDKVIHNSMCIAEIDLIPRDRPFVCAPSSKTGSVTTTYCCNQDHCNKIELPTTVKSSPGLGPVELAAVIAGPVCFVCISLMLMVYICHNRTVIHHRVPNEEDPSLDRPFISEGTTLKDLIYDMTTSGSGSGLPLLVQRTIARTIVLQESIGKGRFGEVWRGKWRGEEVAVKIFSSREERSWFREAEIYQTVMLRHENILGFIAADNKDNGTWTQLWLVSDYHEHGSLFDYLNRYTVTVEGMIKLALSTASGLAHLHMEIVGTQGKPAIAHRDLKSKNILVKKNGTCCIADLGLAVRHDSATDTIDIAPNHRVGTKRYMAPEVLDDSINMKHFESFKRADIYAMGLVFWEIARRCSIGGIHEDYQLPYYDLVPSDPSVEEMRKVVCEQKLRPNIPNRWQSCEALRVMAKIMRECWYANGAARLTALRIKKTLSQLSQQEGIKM
Observation type: IC50 (µM)

>>> df
                                   molecule  observation_type   val
0  N#Cc1c(N)nc2sc(C(N)=O)c(N)c2c1-c1nc2ccccc2s1 [Compound A16]              IC50  0.29
1  N#Cc1c(NCC(O)CO)nc2sc(C(N)=O)c(N)c2c1-c1cc2ccccc2o1 (stereo not drawn) [Compound A41]              IC50  0.18
2  CCS(=O)(=O)N1CCN(c2nc3sc(C(N)=O)c(N)c3c(-c3cc(C)c(C)o3)c2C#N)CC1 [Compound A53]              IC50  0.24
